# tested_system: serotonin 5-HT6 receptor subtype (Homo sapiens, UniProt P50406)
# Construct: host or cells: CHO-Dukx-A2 cells, clone 50-7
# Sequence (P50406 whole entry): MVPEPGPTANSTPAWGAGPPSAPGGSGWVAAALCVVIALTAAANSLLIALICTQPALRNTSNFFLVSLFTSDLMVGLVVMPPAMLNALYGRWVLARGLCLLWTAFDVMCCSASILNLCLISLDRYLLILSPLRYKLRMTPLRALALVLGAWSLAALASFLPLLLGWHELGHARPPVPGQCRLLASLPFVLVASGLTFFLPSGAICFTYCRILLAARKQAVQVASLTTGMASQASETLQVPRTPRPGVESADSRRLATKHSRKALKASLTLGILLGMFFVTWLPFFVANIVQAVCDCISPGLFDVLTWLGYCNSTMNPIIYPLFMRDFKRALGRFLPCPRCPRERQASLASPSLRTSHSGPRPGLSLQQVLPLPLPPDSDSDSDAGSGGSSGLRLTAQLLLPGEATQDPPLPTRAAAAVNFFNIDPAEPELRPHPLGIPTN
# test_name: 5-HT6 binding affinity ([3H]-LSD SPA binding)
# assay_context: read-out: 5-HT6 binding Ki
observed_property: Ki (nM)

For orientation, consider the following solved cases.
compound | units_label | reported_result
COc1ccc(OC)c(S(=O)(=O)n2cnc3c(N4CCNCC4)cccc32)c1 [Example 67] | nM | 2.13
O=S(=O)(c1ccc(F)c(Cl)c1)n1cnc2c(N3CCNCC3)cccc21 [Example 29] | nM | 11.7
O=S(=O)(c1ccc(C(F)(F)F)cc1)n1cnc2c(N3CCNCC3)cccc21 [Example 40] | nM | 18.9
Cc1nc2c(N3CCN[C@H](C)C3)cccc2n1S(=O)(=O)c1cccc2c(Cl)cccc12 [Example 127] | nM | 8.38
CC(C)c1nc2c(N3CCNCC3)cccc2n1S(=O)(=O)c1ccccc1OC(F)(F)F [Example 63] | nM | 1.14

(I) O=S(=O)(c1cccc2ccccc12)n1cnc2c(N3CCNCC3)cc(F)cc21 [Example 101]
(II) Cc1nc2c(N3C[C@@H]4C[C@H]3CN4)cccc2n1S(=O)(=O)c1cccc2ccccc12 [Example 110]
## Task # compare Ki for I vs II ; return the one with the smaller value Choose, then provide that item's label.
## Result I

====

# tested_system: serotonin 5-HT6 receptor subtype (Homo sapiens, UniProt P50406)
# Construct: host or cells: CHO-Dukx-A2 cells, clone 50-7
# test_name: 5-HT6 binding affinity ([3H]-LSD SPA binding)
# assay_context: read-out: 5-HT6 binding Ki
pKi: −log10 of the molar value.
observed_property: pKi

molecule | tested_system | pKi
Cc1cccc(S(=O)(=O)n2cnc3c(N4CCNCC4)cccc32)c1 | serotonin 5-HT6 receptor subtype (Homo sapiens, UniProt P50406) | 8.95
C[C@@H]1CN(c2cccc3c2ncn3S(=O)(=O)c2ccccc2Cl)CCN1 | serotonin 5-HT6 receptor subtype (Homo sapiens, UniProt P50406) | 8.92
CC(C)C1CN(c2cccc3c2ncn3S(=O)(=O)c2ccccc2Cl)CCN1 (stereo not drawn) | serotonin 5-HT6 receptor subtype (Homo sapiens, UniProt P50406) | 8.97

====

# tested_system: serotonin 5-HT6 receptor subtype (Homo sapiens, UniProt P50406)
# Construct: host or cells: CHO-Dukx-A2 cells, clone 50-7
# test_name: 5-HT6 binding affinity ([3H]-LSD SPA binding)
# assay_context: read-out: 5-HT6 binding Ki
pKi: −log10 of the molar value.
observed_property: pKi

(A) Cc1c(Cl)cccc1S(=O)(=O)n1cnc2c(N3C[C@@H]4C[C@H]3CN4)cccc21
(B) Cc1ccc(S(=O)(=O)n2c(C(C)C)nc3c(N4CCNCC4)cccc32)c2ccccc12
## Task Identify the entry with the larger pKi. Options: A and B Choose, then provide that item's label.
## Result B
(B: 8.80, A: 8.54)
